- TGT: sRAGE binding to S100b (Homo sapiens, UniProt Q15109)
- Construct: extracellular domain can be isolated by proteolysis of RAGE to generate soluble RAGE (sRAGE) comprised of the V and C domains
- Sequence (Q15109 23-342 limits assumed): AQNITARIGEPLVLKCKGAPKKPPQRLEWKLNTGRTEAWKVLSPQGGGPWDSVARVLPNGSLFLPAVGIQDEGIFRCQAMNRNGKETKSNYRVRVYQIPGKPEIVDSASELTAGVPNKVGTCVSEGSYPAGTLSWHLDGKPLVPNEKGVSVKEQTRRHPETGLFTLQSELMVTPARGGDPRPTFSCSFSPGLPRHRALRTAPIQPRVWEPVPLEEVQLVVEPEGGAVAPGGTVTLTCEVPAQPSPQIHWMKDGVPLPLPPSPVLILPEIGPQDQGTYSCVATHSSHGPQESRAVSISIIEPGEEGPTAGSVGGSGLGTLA
- ASSAY: RAGE binding assay (ELISA), S100b as the RAGE ligand
- APPLIED_CONDITIONS: compounds tested in hydrochloride salt form, concentration at which 50% signal has been inhibited
Counter-ions that a name gives are not always drawn.
READOUT: IC50 (nM)

Below are worked cases with known answers.
CCCCc1nnc(OC2CCN(CCC(=O)OCC)CC2)cc1-c1ccc(OC2CCCCC2)cc1 [Example 15, dihydrochloride] :: 640
CCCCc1nnc(C(=O)N2CCO[C@H](CN(C)C)C2)cc1-c1ccc(OC2CCCCC2)cc1 [Example 98, dihydrochloride] :: 1990
CCCCc1nnc(C(=O)N[C@H]2CN3CCC2CC3)cc1-c1ccc(OCc2ccccc2)cc1 [Example 83, dihydrochloride] :: 1180
CCCCc1nnc(C(=O)NCC2(O)CCN(C)CC2)cc1-c1ccc(OC2CCCCC2)cc1 [Example 94, dihydrochloride] :: 2550

(1) CCCCc1nnc(C(=O)N[C@H]2CC[C@@H](N(C)C)CC2)cc1-c1ccc(OC2CCCCC2)cc1 [Example 95, dihydrochloride]
(2) CCCCc1nnc(C(=O)NCC2CN(C)CCC2(F)F)cc1-c1ccc(OC2CCCCC2)cc1 (centres unmarked) [Example 99, dihydrochloride]
Just curious, which one has the larger IC50 reading, 1 or 2 ? State the label of the item chosen.
2
(2: 1820 nM, 1: 690 nM)

(A) CCCCc1nnc(OC2CCN(C)CC2)cc1-c1ccc(OCC2CCC(C(=O)N(C)C)CC2)cc1 (centres unmarked) [Example 56, dihydrochloride]
(B) CCCCc1nnc(C(=O)NC[C@H]2CCCN2CC)cc1-c1ccc(OC2CCCCC2)cc1 [Example 91, dihydrochloride]
Just curious, which one has the larger IC50 reading, A or B ? State the label of the item chosen.
A

(A) CN1CCC(Oc2cc(-c3ccc(OCc4ccccc4)cc3)c(C(F)(F)F)nn2)CC1 [Example 13, dihydrochloride]
(B) CCCCc1nnc(OC2CCN(C)CC2)cc1-c1ccc(OC2CCCCC2)c(-c2nnn(C)n2)c1 [Example 79, dihydrochloride]
Just curious, which one has the larger IC50 reading, A or B ? State the label of the item chosen.
A
(A: 2570 nM, B: 1470 nM)

(I) CN1CCC(Oc2cc(-c3ccc(OC4CCCCC4)cc3)c(C3CC3)nn2)CC1 [Example 59, dihydrochloride]
(II) CCCCc1c(-c2ccc(OC3CCCCC3)cc2)cc(OC2CCN(C)CC2)n[n+]1[O-] [Example 40, hydrochloride]
Please let me know which one, I or II , has a lower measured IC50 value. State the label of the item chosen.
II
(II: 2980 nM, I: 4790 nM)

(1) CCCCc1nnc(C(=O)NCC2(F)CCN(C)CC2)cc1-c1ccc(OC2CCCCC2)cc1 [Example 109, dihydrochloride]
(2) CCCCc1nnc(OC2CCN(C)CC2)cc1-c1ccc(OCc2ccc(Cl)cc2)cc1 [Example 50, dihydrochloride]
Just curious, which one has the larger IC50 reading, 1 or 2 ? State the label of the item chosen.
1
(1: 5840 nM, 2: 1420 nM)

(a) CCCCc1nnc(C(=O)NCC2CCN(C)CC2)cc1-c1ccc(OC2CCCCC2)cc1 [Example 103, dihydrochloride]
(b) CCCCc1nnc(OCCCN2CCOCC2)cc1-c1ccc(OCc2ccccc2)cc1 [Example 8, dihydrochloride]
Just curious, which one has the larger IC50 reading, a or b ? State the label of the item chosen.
b

(P) CCCCc1nnc(C(=O)N2CCO[C@@H](CN(C)C)C2)cc1-c1ccc(OC2CCCCC2)cc1 [Example 97, dihydrochloride]
(Q) CCCCc1nnc(C(=O)NCC2(OC)CCN(C)CC2)cc1-c1ccc(OC2CCCCC2)cc1 [Example 89, dihydrochloride]
Please let me know which one, P or Q , has a lower measured IC50 value. State the label of the item chosen.
P
(P: 1890 nM, Q: 2730 nM)

(1) CCCCc1nnc(O[C@H]2CCN(C)C2)cc1-c1ccc(OC2CCCCC2)cc1 [Example 30, dihydrochloride]
(2) CN1CCC(Oc2cc(-c3ccc(OC4CCCCC4)cc3)c(C3CCC3)nn2)CC1 [Example 61, dihydrochloride]
Just curious, which one has the larger IC50 reading, 1 or 2 ? State the label of the item chosen.
2
(2: 3400 nM, 1: 1820 nM)
